// values below are reported mass density
- condition details: 298.15 K; 101.33 kPa; Liquid; Vibrating tube method
Numbers after ± are expanded uncertainties.
assay readout: mass density

molecule: CCCCCCCCCCCCCC[P+](CCCCCC)(CCCCCC)CCCCCC.[Cl-] [trihexyl(tetradecyl)phosphonium chloride]
data value: 889.9 ± 1 kg/m3

molecule: CCCCCCCCCC(=O)[O-].CCCCCCCCCCCCCC[P+](CCCCCC)(CCCCCC)CCCCCC [trihexyltetradecylphosphonium decanoate]
data value: 880.6 ± 1 kg/m3

molecule: CCCCCCCCCCCCCC[P+](CCCCCC)(CCCCCC)CCCCCC.CS(=O)(=O)[O-] [trihexyltetradecylphosphonium methanesulfonate]
data value: 928.1 ± 1 kg/m3

molecule: CCCCCCCCCCCCCC[P+](CCCCCC)(CCCCCC)CCCCCC.[Br-] [tetradecyltrihexylphosphonium bromide]
data value: 955.2 ± 1 kg/m3

molecule: CC(CC(C)(C)C)CP(=O)([O-])CC(C)CC(C)(C)C.CCCCCCCCCCCCCC[P+](CCCCCC)(CCCCCC)CCCCCC
data value: 885.3 ± 1 kg/m3

molecule: CCCCCCCCCCCCCC[P+](CCCCCC)(CCCCCC)CCCCCC.O=S(=O)([N-]S(=O)(=O)C(F)(F)F)C(F)(F)F
data value: 1066.1 ± 1 kg/m3

molecule: CCCCCCCCCCCCCC[P+](CCCCCC)(CCCCCC)CCCCCC.N#C[N-]C#N [tetradecyl(trihexyl)phosphonium dicyanamide]
data value: 899 ± 1 kg/m3
